All figures here come from patent US20250171438A1.

# assay-target: human PAH with the R408W mutation (Homo sapiens, UniProt P00439, R408W)
# Construct: expressed in transfected cells
# Sequence (P00439 1-452 R408W): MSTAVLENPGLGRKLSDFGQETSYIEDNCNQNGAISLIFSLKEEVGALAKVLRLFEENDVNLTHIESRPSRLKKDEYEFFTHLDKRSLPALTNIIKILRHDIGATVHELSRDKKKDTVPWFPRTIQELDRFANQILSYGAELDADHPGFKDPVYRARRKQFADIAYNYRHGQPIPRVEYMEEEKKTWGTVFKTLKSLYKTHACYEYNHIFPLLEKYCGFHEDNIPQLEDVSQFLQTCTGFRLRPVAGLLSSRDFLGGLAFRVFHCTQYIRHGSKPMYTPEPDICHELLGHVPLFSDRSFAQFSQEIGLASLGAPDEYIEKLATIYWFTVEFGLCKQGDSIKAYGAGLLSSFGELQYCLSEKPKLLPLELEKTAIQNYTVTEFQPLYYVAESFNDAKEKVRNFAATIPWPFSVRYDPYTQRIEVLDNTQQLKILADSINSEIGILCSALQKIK
# experiment-summary: Cell Based Phenylalanine Flux Assay
# cond: A375 cells expressing human R408W PAH; 24 hrs compound incubation; 13C-Tyrosine by LC-MS; average where tested multiple times; read-out: AC50
Measured AC50, listed per entry.

1) O=C(c1cn(CC(F)F)nc1Cl)N1CCc2[nH]cnc2[C@H]1c1nc2c(F)cccc2s1: < 0.5 µM
2) O=C(c1oc(N2CCOCC2)nc1C(F)F)N1CCc2[nH]cnc2[C@H]1c1nc2c(F)cccc2s1: < 0.5 µM
3) C[C@H]1CN(C(=O)c2ocnc2C2CC2)[C@@H](c2nc3c(F)cccc3s2)c2nc[nH]c21: 1 to 5 µM
4) O=C(c1cnn2cc(CN3CCC(F)(F)C3)ccc12)N1CCc2[nH]cnc2[C@H]1c1nc2ccccc2s1: 0.5 to 1 µM
5) CC(C)n1ncc(C(=O)N2CCc3[nH]cnc3[C@H]2c2nc3c(F)cccc3s2)c1C(F)F: < 0.5 µM
6) O=C(c1nccs1)N1CCc2[nH]cnc2[C@H]1c1nc2cccc(F)c2s1: 0.5 to 1 µM

Exercise: AC50 for O=C(N1CCc2[nH]cnc2[C@H]1c1nc2ccccc2s1)C(F)(F)C1(O)CCC1 ?
Solution: < 0.5 µM

Exercise: Which AC50 value belongs to O=C(CCc1nnc(Br)s1)N1CCc2[nH]cnc2[C@@H]1c1nc2ccccc2s1 ?
Solution: > 5 µM

Exercise: What AC50 value was documented for this molecule, O=C(CCc1nccs1)N1CCc2[nH]cnc2[C@@H]1c1ncc(Br)s1 ?
Solution: > 5 µM

Exercise: I'd like to know its AC50. The molecule in question is Cc1nn(C)c(Cl)c1C(=O)N1CCc2[nH]cnc2[C@@H]1c1nc2c(F)cccc2s1
Solution: 1 to 5 µM

Exercise: // returns reported AC50 for input CC(C)(O)c1ncc(C(=O)N2CC3(CC3)c3[nH]cnc3[C@@H]2c2nc3ccccc3s2)o1
Solution: 1 to 5 µM

Exercise: Requested field: AC50. Item: O=C(c1oc(C2CC2)nc1C(F)F)N1CCc2[nH]cnc2[C@H]1c1nc2c(F)cccc2s1
Solution: < 0.5 µM

Exercise: Endpoint output: AC50 of CC(C)(C#N)c1nc(C(F)F)c(C(=O)N2CCc3[nH]cnc3[C@@H]2c2nc3c(F)cccc3s2)o1 . Value?
Solution: < 0.5 µM

Exercise: Given the molecule CC(C)(C)c1ncc(C(=O)N2CCc3[nH]cnc3[C@H]2c2nc3c(F)cccc3s2)o1 , what is its reported AC50?
Solution: < 0.5 µM

Exercise: Reported AC50 for O=C(C1CCC1)N1CCc2[nH]cnc2[C@H]1c1nc2ccccc2s1 : what is it?
Solution: < 0.5 µM

Exercise: Find the recorded AC50 belonging to COc1cccc(CCCC(=O)N2CCc3[nH]cnc3[C@H]2c2nc3ccccc3s2)c1 and report it.
Solution: 0.5 to 1 µM

Exercise: Query: AC50; subject: O=C(c1ocnc1C(F)(F)F)N1CCc2[nH]cnc2[C@H]1c1nc2ccccc2s1
Solution: < 0.5 µM

Exercise: # input molecule: O=C(c1ocnc1CF)N1CCc2[nH]cnc2[C@@H]1c1nc2c(F)cccc2s1 ; wanted: its AC50
Solution: 1 to 5 µM

Exercise: Give its AC50 value. Item: O=C(c1oc(NC2CC2)nc1C(F)(F)F)N1CCc2[nH]cnc2[C@@H]1c1nc2c(F)cccc2s1
Solution: < 0.5 µM

Exercise: Can you share its AC50? I mean this molecule: O=C(CCc1nccs1)N1CCc2[nH]cnc2[C@@H]1c1nc2ccc(Br)cc2[nH]1
Solution: > 5 µM

Exercise: What does the record list as AC50 for Cc1nc(C(C)C)oc1C(=O)N1CCc2[nH]cnc2[C@H]1c1nc2ccccc2s1 ?
Solution: < 0.5 µM

Exercise: I'd like to know its AC50. The molecule in question is COCc1ccc2c(C(=O)N3CCc4[nH]cnc4[C@@H]3c3nc4ccccc4s3)cnn2c1
Solution: > 5 µM

Exercise: Consider the molecule O=C(c1nnc(-c2ccccc2)s1)N1CCc2[nH]cnc2[C@@H]1c1nc2ccccc2s1 and give its measured AC50.
Solution: > 5 µM

Exercise: Need AC50, item O=C(CC1CC1)N1CCc2[nH]cnc2[C@@H]1c1nc2cccc(F)c2s1
Solution: 0.5 to 1 µM

Exercise: AC50 lookup needed for COCCc1nc(C)c(C(=O)N2CCc3[nH]cnc3[C@H]2c2nc3ccccc3s2)o1 , thanks.
Solution: 0.5 to 1 µM

Exercise: Recorded AC50 for Cc1cccc2sc([C@H]3c4nc[nH]c4CCN3C(=O)c3ocnc3C#N)nc12 , please?
Solution: > 5 µM

Exercise: State the recorded AC50 for this entry: O=C(CCC1CC1)N1CCc2[nH]cnc2[C@H]1c1nc2ccc(Br)cc2[nH]1
Solution: < 0.5 µM

Exercise: Fill blank: measured AC50 of the molecule O=C(c1cnc(-c2ccc(C(F)(F)F)nc2)s1)N1CCc2[nH]cnc2[C@H]1c1nc2ccccc2s1 is ____.
Solution: 0.5 to 1 µM
